Assay: solubility
Assay type: physicochemical
Settings: pH 6.8, aqueous buffer
Property Measured: solubility

Tell me solubility reported for Cc1nc2ccccc2c(-c2ccc3c4c(ccnc24)CCO3)c1[C@H](OC(C)(C)C)C(=O)O (atropisomer, axis not shown) [Type A]
> 24 mg/mL

Cited source for all entries: patent US20140094486A1
